Experiment: Cytotoxicity against human RT112 cells assessed as cell viability by MTT assay in absence of dCK substrate deoxycytidine
Assay type: functional, cell-based
Conditions: RT-112
Record form. Attribute: pEC50. Fill in for each entry.
// pEC50 is dimensionless: -log10 of concentration (M)

response.value for `Nc1ccn([C@@H]2O[C@H](CO)[C@@H](O)C2(F)F)c(=O)n1` (field: pEC50) = 8.85

response.value for C[C@H](NP(=O)(OC[C@H]1O[C@@H](n2ccc(N)nc2=O)C(F)(F)[C@@H]1O)Oc1ccccc1)C(=O)OCc1ccccc1 (some centres not stated) [FOSGEMCITABINE PALABENAMIDE] (field: pEC50) = 9.70

---

Assay: Cytotoxicity against human RT112 cells assessed as cell viability by MTT assay in presence of dCK substrate deoxycytidine
Assay type: functional, cell-based
Conditions: RT-112
Record form. Attribute: pEC50. Fill in for each entry.
// pEC50 is dimensionless: -log10 of concentration (M)

response.value for `Nc1ccn([C@@H]2O[C@H](CO)[C@@H](O)C2(F)F)c(=O)n1` (field: pEC50) = 6.98

response.value for C[C@H](NP(=O)(OC[C@H]1O[C@@H](n2ccc(N)nc2=O)C(F)(F)[C@@H]1O)Oc1ccccc1)C(=O)OCc1ccccc1 (some centres not stated) [FOSGEMCITABINE PALABENAMIDE] (field: pEC50) = 9.15

---

Test system: CCRF-CEM
Assay: Cytostatic activity against human CEM cells after 72 hrs by coulter counter analysis
Assay type: functional, cell-based
The label is met for IC50 below 0.09 µM and not met for IC50 equal to or exceeding 0.09 µM.

(Q) Field: below-cutoff. Rule: recorded IC50 strictly less than 0.09 µM. Subject: `Nc1ccn([C@@H]2O[C@H](CO)[C@@H](O)C2(F)F)c(=O)n1`
(A) met

(Q) Field: below-cutoff. Rule: recorded IC50 strictly less than 0.09 µM. Subject: C[C@H](NP(=O)(OC[C@H]1O[C@@H](n2ccc(N)nc2=O)C(F)(F)[C@@H]1O)Oc1cccc2ccccc12)C(=O)OC1CCCCC1 (stereo partly drawn)
(A) not met

(Q) Field: below-cutoff. Rule: recorded IC50 strictly less than 0.09 µM. Subject: C[C@H](NP(=O)(OC[C@H]1O[C@@H](n2ccc(N)nc2=O)C(F)(F)[C@@H]1O)Oc1ccccc1)C(=O)OCc1ccccc1 (stereo partly drawn) [FOSGEMCITABINE PALABENAMIDE]
(A) not met

(Q) Field: below-cutoff. Rule: recorded IC50 strictly less than 0.09 µM. Subject: C[C@H](NP(=O)(OC[C@H]1O[C@@H](n2ccc(N)nc2=O)C(F)(F)[C@@H]1O)Oc1cccc2ccccc12)C(=O)OC1CCCC1 (stereo partly drawn)
(A) not met

(Q) Field: below-cutoff. Rule: recorded IC50 strictly less than 0.09 µM. Subject: CCCCCOC(=O)[C@H](C)NP(=O)(OC[C@H]1O[C@@H](n2ccc(N)nc2=O)C(F)(F)[C@@H]1O)Oc1ccccc1 (stereo partly drawn)
(A) met

(Q) Field: below-cutoff. Rule: recorded IC50 strictly less than 0.09 µM. Subject: CCCCCCOC(=O)[C@H](C)NP(=O)(OC[C@H]1O[C@@H](n2ccc(N)nc2=O)C(F)(F)[C@@H]1O)Oc1cccc2ccccc12 (stereo partly drawn)
(A) met

(Q) Field: below-cutoff. Rule: recorded IC50 strictly less than 0.09 µM. Subject: C[C@H](NP(=O)(OC[C@H]1O[C@@H](n2ccc(N)nc2=O)C(F)(F)[C@@H]1O)Oc1ccccc1)C(=O)OC1CCCCC1 (stereo partly drawn)
(A) not met

(Q) Field: below-cutoff. Rule: recorded IC50 strictly less than 0.09 µM. Subject: C[C@H](NP(=O)(OC[C@H]1O[C@@H](n2ccc(N)nc2=O)C(F)(F)[C@@H]1O)Oc1cccc2ccccc12)C(=O)OCc1ccccc1 (stereo partly drawn)
(A) not met

(Q) Field: below-cutoff. Rule: recorded IC50 strictly less than 0.09 µM. Subject: CCCCCCOC(=O)[C@H](C)NP(=O)(OC[C@H]1O[C@@H](n2ccc(N)nc2=O)C(F)(F)[C@@H]1O)Oc1ccccc1 (stereo partly drawn)
(A) met

(Q) Field: below-cutoff. Rule: recorded IC50 strictly less than 0.09 µM. Subject: CC(C)OC(=O)[C@H](C)NP(=O)(OC[C@H]1O[C@@H](n2ccc(N)nc2=O)C(F)(F)[C@@H]1O)Oc1ccccc1 (stereo partly drawn)
(A) not met

(Q) Field: below-cutoff. Rule: recorded IC50 strictly less than 0.09 µM. Subject: CCCCCOC(=O)C(C)(C)NP(=O)(OC[C@H]1O[C@@H](n2ccc(N)nc2=O)C(F)(F)[C@@H]1O)Oc1cccc2ccccc12 (stereo partly drawn)
(A) not met

(Q) Field: below-cutoff. Rule: recorded IC50 strictly less than 0.09 µM. Subject: CCCCCOC(=O)[C@H](C)NP(=O)(OC[C@H]1O[C@@H](n2ccc(N)nc2=O)C(F)(F)[C@@H]1O)Oc1cccc2ccccc12 (stereo partly drawn)
(A) met

(Q) Field: below-cutoff. Rule: recorded IC50 strictly less than 0.09 µM. Subject: C[C@H](NP(=O)(OC[C@H]1O[C@@H](n2ccc(N)nc2=O)C(F)(F)[C@@H]1O)Oc1ccccc1)C(=O)OCC(C)(C)C (stereo partly drawn)
(A) not met
